Target: tau construct K19 (Homo sapiens)
Sequence (P10636 with tags, fused parts or gaps isoform P10636-2 limits assumed): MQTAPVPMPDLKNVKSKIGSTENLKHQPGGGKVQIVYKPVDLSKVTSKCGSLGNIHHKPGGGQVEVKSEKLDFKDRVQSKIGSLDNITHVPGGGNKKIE
Assay: Thioflavine S (ThS) assay for aggregation of tau
Type: biochemical
Conditions: 10 μM tau construct K19, 2.5 μM heparin, ThS fluorescence; read-out: DC50
Output Satisfied for records whose DC50 is lower than 3 µM, Not satisfied for records at or above 3 µM.

[[record]]
querysmiles = "COc1cc(-c2csc(NNC(=O)c3ccc(C(F)(F)F)cc3)n2)cc(OC)c1O"
grouplabel = "Not satisfied"

[[record]]
querysmiles = "O=C(NNc1nc2c(s1)Cc1ccccc1-2)c1ccc2c(c1)OCO2"
grouplabel = "Not satisfied"

[[record]]
querysmiles = "COc1ccc(-c2csc(NNC(=O)c3ccccc3F)n2)cc1"
grouplabel = "Not satisfied"

[[record]]
querysmiles = "O=C(NNc1nc(-c2ccccc2)cs1)c1cccnc1"
grouplabel = "Satisfied"

[[record]]
querysmiles = "O=C(NNc1nc(-c2ccc(N3CCCC3)cc2)cs1)c1ccc(-c2ccccc2)cc1"
grouplabel = "Satisfied"

[[record]]
querysmiles = "COc1cccc(-c2csc(NNC(=O)c3cccs3)n2)c1"
grouplabel = "Not satisfied"

[[record]]
querysmiles = "O=C(NNc1nc(-c2ccc(Cl)cc2)cs1)c1ccccc1"
grouplabel = "Not satisfied"

[[record]]
querysmiles = "O=C(NNc1nc(-c2cccc([N+](=O)[O-])c2)cs1)c1ccccc1Cl"
grouplabel = "Not satisfied"

[[record]]
querysmiles = "O=C(NNc1nc(-c2cc3ccccc3oc2=O)cs1)c1ccc(-c2ccccc2)cc1"
grouplabel = "Not satisfied"

[[record]]
querysmiles = "O=C(NNc1nc(-c2cc3ccccc3o2)cs1)c1ccc(Cl)cc1"
grouplabel = "Not satisfied"

[[record]]
querysmiles = "O=C(NNc1nc(-c2ccccc2)cs1)c1ccc(Cl)cc1"
grouplabel = "Not satisfied"

[[record]]
querysmiles = "O=C(NNc1nc(-c2ccc([N+](=O)[O-])cc2)cs1)c1ccc2[nH]cnc2c1"
grouplabel = "Satisfied"

[[record]]
querysmiles = "O=C(NNc1nc(-c2ccc(Br)cc2)cs1)c1ccco1"
grouplabel = "Satisfied"

[[record]]
querysmiles = "O=C(NNc1nc2c(s1)Cc1ccccc1-2)c1ccc(C(F)(F)F)cc1"
grouplabel = "Satisfied"

[[record]]
querysmiles = "O=C(NNc1nc(-c2ccc(F)cc2)cs1)c1ccc(Cl)cc1"
grouplabel = "Not satisfied"

[[record]]
querysmiles = "O=C(NNc1nc(-c2ccc(-c3ccccc3)cc2)cs1)c1ccccc1F"
grouplabel = "Not satisfied"

[[record]]
querysmiles = "COc1ccc(-c2csc(NNC(=O)c3ccccc3)n2)cc1"
grouplabel = "Not satisfied"

[[record]]
querysmiles = "O=C(NNc1nc(-c2ccc(Cl)cc2)cs1)C1CCCCC1"
grouplabel = "Not satisfied"

[[record]]
querysmiles = "O=C(NNc1nc(-c2cc3ccccc3oc2=O)cs1)c1cccnc1"
grouplabel = "Not satisfied"


Source of measurements: patent US8410152B2
